- Experimental system: Voltage-dependent N-type calcium channel subunit alpha-1B (Rattus norvegicus)
- Sequence (Q02294 whole entry): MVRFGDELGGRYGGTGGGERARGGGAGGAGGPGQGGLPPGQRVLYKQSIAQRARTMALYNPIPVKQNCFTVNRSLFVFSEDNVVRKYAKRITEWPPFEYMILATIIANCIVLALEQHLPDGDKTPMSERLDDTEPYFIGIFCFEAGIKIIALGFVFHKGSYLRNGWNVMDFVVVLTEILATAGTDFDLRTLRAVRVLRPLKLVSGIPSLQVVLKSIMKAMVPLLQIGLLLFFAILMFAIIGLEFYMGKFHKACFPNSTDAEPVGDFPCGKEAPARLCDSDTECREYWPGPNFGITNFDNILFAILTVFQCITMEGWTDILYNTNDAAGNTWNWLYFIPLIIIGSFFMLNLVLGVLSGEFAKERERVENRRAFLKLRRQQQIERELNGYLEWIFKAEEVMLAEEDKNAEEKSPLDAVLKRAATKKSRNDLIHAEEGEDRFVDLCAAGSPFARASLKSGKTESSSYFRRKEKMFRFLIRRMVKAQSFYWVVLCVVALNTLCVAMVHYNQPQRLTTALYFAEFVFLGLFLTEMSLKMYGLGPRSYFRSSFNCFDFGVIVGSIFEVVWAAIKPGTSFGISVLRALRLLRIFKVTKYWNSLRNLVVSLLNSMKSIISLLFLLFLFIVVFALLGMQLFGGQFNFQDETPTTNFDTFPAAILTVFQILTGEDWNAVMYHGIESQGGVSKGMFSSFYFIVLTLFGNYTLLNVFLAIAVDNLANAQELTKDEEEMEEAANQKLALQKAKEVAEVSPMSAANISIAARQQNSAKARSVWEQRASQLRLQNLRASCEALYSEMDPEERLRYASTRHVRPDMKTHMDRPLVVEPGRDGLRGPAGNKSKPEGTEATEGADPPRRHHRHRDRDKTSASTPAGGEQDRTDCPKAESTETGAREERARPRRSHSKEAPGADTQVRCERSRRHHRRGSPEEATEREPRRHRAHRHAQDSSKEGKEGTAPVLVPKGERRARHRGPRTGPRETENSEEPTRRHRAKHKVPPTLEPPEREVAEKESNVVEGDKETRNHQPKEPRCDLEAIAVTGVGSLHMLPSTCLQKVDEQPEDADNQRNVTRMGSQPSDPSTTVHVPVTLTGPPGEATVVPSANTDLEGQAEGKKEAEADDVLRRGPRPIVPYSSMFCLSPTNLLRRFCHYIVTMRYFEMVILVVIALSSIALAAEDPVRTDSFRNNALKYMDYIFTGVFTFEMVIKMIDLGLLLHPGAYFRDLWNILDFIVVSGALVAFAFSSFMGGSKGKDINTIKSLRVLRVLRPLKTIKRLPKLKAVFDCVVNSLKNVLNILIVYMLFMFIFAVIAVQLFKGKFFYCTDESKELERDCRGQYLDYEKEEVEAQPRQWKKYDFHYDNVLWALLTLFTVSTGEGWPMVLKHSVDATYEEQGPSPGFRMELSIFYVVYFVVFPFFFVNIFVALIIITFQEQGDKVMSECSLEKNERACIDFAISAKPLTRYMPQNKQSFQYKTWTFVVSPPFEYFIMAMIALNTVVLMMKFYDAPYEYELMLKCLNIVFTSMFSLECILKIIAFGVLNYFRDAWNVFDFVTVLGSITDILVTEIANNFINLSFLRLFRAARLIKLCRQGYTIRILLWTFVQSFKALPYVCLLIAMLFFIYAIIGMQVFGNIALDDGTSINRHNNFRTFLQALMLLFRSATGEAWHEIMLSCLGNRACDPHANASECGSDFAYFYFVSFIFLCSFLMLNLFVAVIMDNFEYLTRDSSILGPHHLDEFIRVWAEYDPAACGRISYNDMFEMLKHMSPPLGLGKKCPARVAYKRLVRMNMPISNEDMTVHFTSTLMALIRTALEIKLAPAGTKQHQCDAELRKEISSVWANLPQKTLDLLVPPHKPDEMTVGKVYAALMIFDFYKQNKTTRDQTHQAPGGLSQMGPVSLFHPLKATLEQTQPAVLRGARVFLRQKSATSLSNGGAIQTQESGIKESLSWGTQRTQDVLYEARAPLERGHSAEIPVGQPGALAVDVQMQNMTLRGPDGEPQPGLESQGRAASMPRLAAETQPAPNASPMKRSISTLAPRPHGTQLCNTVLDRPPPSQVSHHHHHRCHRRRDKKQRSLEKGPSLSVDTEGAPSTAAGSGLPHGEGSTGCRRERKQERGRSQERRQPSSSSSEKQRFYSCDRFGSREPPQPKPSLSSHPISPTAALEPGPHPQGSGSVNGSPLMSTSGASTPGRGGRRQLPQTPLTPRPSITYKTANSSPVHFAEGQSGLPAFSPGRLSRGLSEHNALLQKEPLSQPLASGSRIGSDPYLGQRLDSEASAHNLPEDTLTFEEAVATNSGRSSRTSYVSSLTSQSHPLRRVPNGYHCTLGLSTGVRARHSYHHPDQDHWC
- Test name: Inhibition of rat brain Cav2.2 N-type channel expressed in HEK cells after 20 mins by FLIPR assay
Parameter measured: IC50 (µM)
Just the number in µM, nothing appended.

CCCCC[C@@H]1CN[C@H](C)CN1Cc1ccccc1 (relative stereo) : 9.84

Exercise: Quick one: IC50 of C[C@@H]1CN(C(c2ccccc2)c2ccccc2)[C@H](CCCO[Si](C)(C)C(C)(C)C)CN1 (relative stereo) ?
Solution: 10

Exercise: What value of IC50 has been reported for the following compound? C[C@@H]1CN(Cc2ccc(F)cc2)[C@H](Cc2ccccc2)CN1C(=O)C(c1ccccc1)c1ccccc1 (relative stereo)
Solution: 10

Exercise: So what's the measured IC50 for this one? Cc1ccc(S(=O)(=O)N2C[C@@H](CCCCO[Si](C)(C)C(C)(C)C)N(C(c3ccccc3)c3ccccc3)C[C@H]2C)cc1 (relative stereo)
Solution: 4.7

Exercise: Would you kindly share the measured IC50 for C[C@@H]1CN(C(c2ccccc2)c2ccccc2)[C@H](CCCCO[Si](C)(C)C(C)(C)C)CN1 (relative stereo) ?
Solution: 1.07

Exercise: Would you mind telling me what IC50 value was observed for C[C@@H]1CN(C(c2ccccc2)c2ccccc2)[C@H](CCCCO)CN1 (relative stereo) ?
Solution: 0.85

Exercise: Please give the measured IC50 for this compound: C[C@@H]1CN(Cc2ccc(F)cc2)[C@H](Cc2ccccc2)CN1 (relative stereo)
Solution: 8.37

###

- Experimental system: Voltage-dependent L-type calcium channel subunit alpha-1C (Rattus norvegicus, UniProt P22002)
- Sequence (P22002 whole entry): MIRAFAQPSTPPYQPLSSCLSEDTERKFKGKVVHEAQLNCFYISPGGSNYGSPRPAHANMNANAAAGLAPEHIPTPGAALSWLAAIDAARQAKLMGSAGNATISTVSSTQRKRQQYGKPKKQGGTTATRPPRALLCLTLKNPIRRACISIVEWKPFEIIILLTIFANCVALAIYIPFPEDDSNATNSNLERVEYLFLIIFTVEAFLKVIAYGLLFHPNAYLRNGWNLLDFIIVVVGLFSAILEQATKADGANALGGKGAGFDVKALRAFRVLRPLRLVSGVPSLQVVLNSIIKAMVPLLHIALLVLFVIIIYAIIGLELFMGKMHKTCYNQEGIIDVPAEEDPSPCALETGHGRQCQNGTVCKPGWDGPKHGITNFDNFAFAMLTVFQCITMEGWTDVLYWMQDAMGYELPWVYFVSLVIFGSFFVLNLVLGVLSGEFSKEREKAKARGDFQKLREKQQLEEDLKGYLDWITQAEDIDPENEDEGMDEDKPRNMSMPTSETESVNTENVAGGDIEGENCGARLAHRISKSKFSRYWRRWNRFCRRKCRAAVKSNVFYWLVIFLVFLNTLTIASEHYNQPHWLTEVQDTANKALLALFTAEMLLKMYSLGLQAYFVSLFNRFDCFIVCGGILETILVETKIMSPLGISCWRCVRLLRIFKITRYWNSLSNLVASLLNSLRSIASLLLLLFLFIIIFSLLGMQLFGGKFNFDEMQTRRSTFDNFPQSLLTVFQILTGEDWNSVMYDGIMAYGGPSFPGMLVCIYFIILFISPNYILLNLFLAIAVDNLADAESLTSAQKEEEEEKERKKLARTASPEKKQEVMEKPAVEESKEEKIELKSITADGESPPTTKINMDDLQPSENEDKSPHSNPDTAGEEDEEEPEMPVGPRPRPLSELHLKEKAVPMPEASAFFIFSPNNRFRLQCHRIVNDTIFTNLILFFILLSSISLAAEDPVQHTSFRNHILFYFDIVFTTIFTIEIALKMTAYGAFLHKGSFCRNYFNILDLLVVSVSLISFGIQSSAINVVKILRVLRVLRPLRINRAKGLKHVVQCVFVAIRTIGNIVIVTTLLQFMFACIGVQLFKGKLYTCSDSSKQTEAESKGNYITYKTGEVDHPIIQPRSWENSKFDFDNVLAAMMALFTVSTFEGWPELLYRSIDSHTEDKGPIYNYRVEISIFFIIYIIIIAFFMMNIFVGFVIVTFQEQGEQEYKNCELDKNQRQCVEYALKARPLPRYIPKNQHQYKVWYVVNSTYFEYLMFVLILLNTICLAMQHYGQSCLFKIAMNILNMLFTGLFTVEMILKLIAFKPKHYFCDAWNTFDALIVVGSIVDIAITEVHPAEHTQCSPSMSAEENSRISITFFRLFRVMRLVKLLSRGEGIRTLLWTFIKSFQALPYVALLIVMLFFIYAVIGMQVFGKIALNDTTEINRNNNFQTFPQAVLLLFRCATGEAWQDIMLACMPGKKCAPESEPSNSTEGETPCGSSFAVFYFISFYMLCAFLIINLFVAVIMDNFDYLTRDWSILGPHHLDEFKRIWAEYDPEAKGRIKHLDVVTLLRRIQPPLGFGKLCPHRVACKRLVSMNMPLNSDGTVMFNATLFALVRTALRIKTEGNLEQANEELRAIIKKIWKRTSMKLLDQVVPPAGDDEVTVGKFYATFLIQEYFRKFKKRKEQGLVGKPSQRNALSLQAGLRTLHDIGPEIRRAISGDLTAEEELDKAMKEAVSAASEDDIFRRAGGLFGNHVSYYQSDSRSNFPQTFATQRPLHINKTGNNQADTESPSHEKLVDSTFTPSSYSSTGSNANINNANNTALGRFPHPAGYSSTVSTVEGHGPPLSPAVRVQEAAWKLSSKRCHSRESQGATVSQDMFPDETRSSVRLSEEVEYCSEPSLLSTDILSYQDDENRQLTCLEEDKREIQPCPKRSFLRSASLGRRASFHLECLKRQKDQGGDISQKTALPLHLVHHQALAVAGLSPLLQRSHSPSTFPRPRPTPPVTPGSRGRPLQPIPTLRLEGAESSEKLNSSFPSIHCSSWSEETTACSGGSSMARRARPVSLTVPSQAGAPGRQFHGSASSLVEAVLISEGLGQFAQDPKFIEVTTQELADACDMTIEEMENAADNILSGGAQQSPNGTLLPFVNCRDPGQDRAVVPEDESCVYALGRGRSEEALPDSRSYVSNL
- Test name: Inhibition of rat cardiac Cav1.2 L-type channel expressed in HEK cells after 20 mins by FLIPR assay
Reported IC50 values for the following compounds.
Give a bare numeral; the unit µM is implied.

CCCCC[C@@H]1CN[C@H](C)CN1Cc1ccccc1 (relative stereo) : 9.23
C[C@@H]1CN(C(c2ccccc2)c2ccccc2)[C@H](CCCO[Si](C)(C)C(C)(C)C)CN1 (relative stereo) : 6.8
C[C@@H]1CN(C(c2ccccc2)c2ccccc2)[C@H](CCCCO)CN1 (relative stereo) : 5.4

Now look at this one.
Exercise: So what does the record say about IC50 for C[C@@H]1CN(C(c2ccccc2)c2ccccc2)[C@H](CCCCO[Si](C)(C)C(C)(C)C)CN1 (relative stereo) ?
Solution: 1.53

###

- Experimental system: Voltage-dependent L-type calcium channel subunit alpha-1C (Rattus norvegicus, UniProt P22002)
- Test name: Inhibition of rat cardiac Cav1.2 L-type channel expressed in HEK cells after 20 mins by FLIPR assay
// reported pIC50 per item
pIC50 field: float, defined as -log10 of concentration (mol/L).

Exercise: I'd like to know its pIC50. The compound in question is C[C@@H]1CN(Cc2ccc(F)cc2)[C@H](Cc2ccccc2)CN1 (relative stereo)
Solution: 5.00

Exercise: I have this compound here, Cc1ccc(S(=O)(=O)N2C[C@@H](CCCO[Si](C)(C)C(C)(C)C)N(C(c3ccccc3)c3ccccc3)C[C@H]2C)cc1 (relative stereo) , and I need its recorded pIC50.
Solution: 5.29

Exercise: Request the reported pIC50 associated with `C[C@@H]1CN(C(c2ccccc2)c2ccccc2)[C@H](Cc2ccccc2)CN1`
Solution: 5.75

Exercise: Data request, read-out pIC50, for C[C@@H]1CN(Cc2ccc(F)cc2)[C@H](Cc2ccccc2)CN1S(=O)(=O)c1ccc(C(F)(F)F)cc1 (relative stereo)
Solution: 5.00

Exercise: Sample CCCCC[C@@H]1CN[C@H](C)CN1C(c1ccccc1)c1ccccc1 (relative stereo) — what was its pIC50?
Solution: 5.75
